Target: T1, Spy_(29-130) (UniProt P77754 52-153)
T1 construct: Spy chaperone, residues 29-130; source: E. coli BL21 (DE3), purified (Ni-NTA, cation exchange, SEC); not shown: His6, N-terminal, cleaved; SUMO, N-terminal, cleaved
T1 sequence (looked up): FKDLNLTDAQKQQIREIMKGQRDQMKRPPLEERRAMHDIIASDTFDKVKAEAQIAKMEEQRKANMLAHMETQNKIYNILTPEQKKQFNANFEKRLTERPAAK
Assay: BLI; Octet RED96; client biotinylated and loaded on streptavidin sensors; Spy or Spy variant in solution at 0.25, 0.5, 1, 1.5 and 2 μM; 40 mM HEPES, 150 mM NaCl, pH 7.5; Kd calculated as koff/kon
Conditions: both partners purified
pKd: −log10 of the molar value.

[
  {
    "binder": "Im7 H40W L53A I54A (natural protein, biotin (EZ-link NHS-biotin, 1:1 molar ratio of biotin to protein), Im7 (colicin E7 immunity protein) with H40W L53A I54A; Spy was made with an N-terminal His6-SUMO tag that was cleaved; also called Im7AAW; partially folded client; source: purified by a similar procedure to Spy) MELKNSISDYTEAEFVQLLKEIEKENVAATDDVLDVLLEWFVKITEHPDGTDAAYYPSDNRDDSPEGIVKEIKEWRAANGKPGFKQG",
    "pKd": 6.48
  }
]
